This section presents molecules with their documented melting point values.
readout_label: melting point

molecule	readout_label	observed_measurement
CCCCCCCCC(SCCCCCC)C(=O)Nc1c(Cl)cc(NC(C)=O)c2ncc(C)cc12 (stereo not given)	melting point	140 to 141 °C
CC1CC(=O)N(c2ccncc2)C1=O (stereo not given)	melting point	119 to 120 °C
COC(=O)c1sc(-c2ccccc2)c(N)c1N	melting point	148 to 150 °C
O=C1N(CO)OCCN1c1ccc(Cl)c(Cl)c1	melting point	134 °C
CN1CCC(=C2c3ccccc3[C@@H](O)[C@@H](O)c3ccccc32)CC1	melting point	248 to 255 °C
Cc1ccc(Nn2c(-c3ccccc3)c(C)[nH]c2=S)cc1C	melting point	228 °C
Cn1cccc1C1=CC(=O)c2ncccc2C1=O	melting point	167 to 168 °C
COC(=O)c1cc(NCc2c(F)c(F)c(C(F)(F)F)c(F)c2F)ccc1O	melting point	127 °C
COc1ccc(OC)c2c1COC(c1ncc(S(=O)(=O)c3ccc(C)cc3)o1)C2 (stereo not given)	melting point	138 to 140 °C
CCCCOc1ccc(CC(C)C(=O)Oc2ccc(-c3ccc(C#N)cc3)cc2)cc1 (stereo not given)	melting point	76.1 to 77.1 °C
